B1: library; numbered along this chain (parent)
chain: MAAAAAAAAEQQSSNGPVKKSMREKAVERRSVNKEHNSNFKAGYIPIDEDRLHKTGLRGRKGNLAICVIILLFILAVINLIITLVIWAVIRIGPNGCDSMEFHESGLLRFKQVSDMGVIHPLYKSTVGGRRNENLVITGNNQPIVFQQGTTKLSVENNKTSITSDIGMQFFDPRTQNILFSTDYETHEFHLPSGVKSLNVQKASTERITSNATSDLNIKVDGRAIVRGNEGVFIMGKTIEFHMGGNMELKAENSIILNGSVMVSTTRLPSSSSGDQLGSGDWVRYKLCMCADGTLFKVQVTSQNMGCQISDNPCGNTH

- Variants of: B1
- Assay Notes: SGCB cell-surface expression functional score (HA stain, bin4 vs bin1, normalised to synonymous) (log10 ratio); higher = more cell-surface SGCB (functional)
Please use t whenever SGCB cell-surface expression functional score (log10) is not below 0.03, and f whenever it is.

Solved cases (5 shown):
Mutation Descriptor	Label Value
V283I	t
M22L	t
V136D	f
K196E	f
N39G	t

Q. Test whether the variant "I74L" records SGCB cell-surface expression functional score (log10) of 0.03 or higher.
A. t

Q. Item "P192N" with SGCB cell-surface expression functional score (log10) of 0.03 or above?
A. f

Q. Record "R174Y" ; criterion: SGCB cell-surface expression functional score (log10) no lower than 0.03. Met?
A. f

Q. Given the entry "K297Q" , answer whether its SGCB cell-surface expression functional score (log10) meets or surpasses 0.03.
A. f

Q. For this variant, is measured SGCB cell-surface expression functional score (log10) 0.03 or higher? "I82L"
A. t

Q. Is the recorded value of SGCB cell-surface expression functional score (log10) equal to or greater than 0.03 for this variant? "E28Y"
A. t

Q. SGCB cell-surface expression functional score (log10) >= 0.03 for "V200L" ?
A. f

Q. Item "E104Q" with SGCB cell-surface expression functional score (log10) of 0.03 or above?
A. t

Q. Given the entry "H190R" , answer whether its SGCB cell-surface expression functional score (log10) meets or surpasses 0.03.
A. t
